Tested on: M14 melanoma
method.summary: NCI tumour cell line growth inhibition, 48 h
Quick reference for TGI among some compounds

                                   compound  result_value
0  COc1ccc(C2SCC(=O)N2NC(=O)c2ccncc2)cc1F (stereo not given)      > 100 µM
1  CC1=C[C@]2(O)C(=O)[C@H](C)C[C@H]3[C@@H](CC[C@@](C)(O)/C=C\2C1=O)C3(C)C       39.9 µM
2  Cc1cc(C)c(S(=O)(=O)N2CCCN(S(=O)(=O)c3c(C)cc(C)cc3C)OCCCO2)c(C)c1      > 100 µM
3         CCOc1ccc(N=Cc2ccc3cc(C)ccc3n2)cc1      > 100 µM
4  COc1ccc(N2C(=O)[C@H]3[C@H]4CC(C(C)(C)C)CC[C@H]4c4c(n(C)c5ccccc45)[C@H]3C2=O)cc1 (stereo not given in full)      > 100 µM
5       CCCSc1ccc2[nH]c(/N=C/c3ccccc3)cc2c1      > 100 µM
6  CC(=C/C=C/C=C(C)\C=C\C=C(\C)C(=O)O)/C=C/C=C(/C)C(=O)O      > 100 µM
7  CCn1c(SCC(=O)N/N=C/c2ccccc2)nc2ccccc2c1=O      > 100 µM
8  Cc1ccc(N2C(=O)C=C(C3=C(O)C(=O)N(c4ccc(C)cc4)C3=O)C2=O)cc1      > 100 µM
9  CC(NO)/C(=N/O)c1ccco1 (stereo not given)       > 10 µM

QUERY: Kindly state the measured TGI obtained for CCC(C(=O)C(=O)C(CC)P1(=O)OC(C)(C)CN1C(C)(C)C)P1(=O)OC(C)(C)CN1C(C)(C)C (stereo not given) with M14 melanoma.
RESULT: > 100 µM

QUERY: Query C[C@]12CCC(=O)C(O)=C1CC[C@@H]1C2CC[C@]2(C)NC(=O)CCC12 (stereo not given in full) next
RESULT: > 100 µM

QUERY: Query CC(=O)OC[C@]1(C)CCCC2(C)C1CCC1C=C(C)[C@H]3CCC12C3 (stereo not given in full) next
RESULT: > 100 µM

QUERY: Query CC(C)(Oc1ccccc1)C(=O)Sc1c(-c2ccccc2)c(=O)n(-c2ccccc2)c(=S)n1-c1ccccc1 next
RESULT: > 100 µM

QUERY: Query Cc1ccc(Cc2cnc(NC(=O)/C=C/c3cccc(C)c3)s2)cc1 next
RESULT: 0.843 µM

QUERY: Query Cc1ccc2c(-c3ccnc(Nc4ccccc4)n3)c(-c3ccc(F)cc3)nn2n1 next
RESULT: > 25 µM

QUERY: Query COc1cc(S(=O)(=O)Nc2nc(-c3ccc(N4C(=O)/C(=C/C=C/c5ccccc5)N=C4c4ccccc4)cc3)cs2)ccc1Cl next
RESULT: > 100 µM

QUERY: Query COc1ccc2c3c([nH]c2c1[N+](=O)[O-])C(C)N(Cc1ccc([N+](=O)[O-])cc1)CC3 (stereo not given) next
RESULT: 35.9 µM

QUERY: Query Cc1n[nH]c(=O)n1/N=C/c1ccc(F)cc1 next
RESULT: > 100 µM

QUERY: Query O=C(O)CCCSc1ccccc1 next
RESULT: > 100 µM
